# testedSystem: UniProt:Q72547
# procedureText: Inhibition of HIV1 reverse transcriptase RNA-dependent DNA polymerase activity
measuredEndpoint: IC50 (µM)
Dear colleague, please return just the value in µM, with no unit written.

Kindly state the measured IC50 obtained for `Cc1cn([C@@H]2O[C@H](CO[Si](C)(C)C(C)(C)C)[C@@]3(OS(=O)(=O)C(/C=C/CO)=C3N)[C@H]2O[Si](C)(C)C(C)(C)C)c(=O)[nH]c1=O` with UniProt:Q72547.
4.8

Kindly state the measured IC50 obtained for `Cc1cn([C@@H]2O[C@H](CO[Si](C)(C)C(C)(C)C)[C@@]3(OS(=O)(=O)C=C3N)[C@H]2O[Si](C)(C)C(C)(C)C)c(=O)[nH]c1=O` with UniProt:Q72547.
1

Kindly state the measured IC50 obtained for `Cc1cn([C@@H]2O[C@H](CO[Si](C)(C)C(C)(C)C)[C@@]3(OS(=O)(=O)C=C3N)[C@H]2O[Si](C)(C)C(C)(C)C)c(=O)n(C)c1=O` with UniProt:Q72547.
1.3

Kindly state the measured IC50 obtained for `Cc1cn([C@@H]2O[C@H](CO[Si](C)(C)C(C)(C)C)[C@@]3(OS(=O)(=O)C=C3N)[C@H]2O[Si](C)(C)C(C)(C)C)c(=O)n(CC(=O)N[C@@H](C)C(=O)O)c1=O` with UniProt:Q72547.
3.1

Kindly state the measured IC50 obtained for `Cc1cn([C@@H]2O[C@H](CO[Si](C)(C)C(C)(C)C)[C@@H](O)[C@H]2O[Si](C)(C)C(C)(C)C)c(=O)n(CC(=O)O)c1=O` with UniProt:Q72547.
6.6

Kindly state the measured IC50 obtained for Cc1cn(C2OC(CO[Si](C)(C)C(C)(C)C)CC2O[Si](C)(C)C(C)(C)C)c(=O)n(CC(=O)O)c1=O (stereo unspecified) with UniProt:Q72547.
5.7

* * *

I'd appreciate it if you could supply pIC50 values for the items below.
# testedSystem: Human immunodeficiency virus type 1 reverse transcriptase (Human immunodeficiency virus 1)
# procedureText: Inhibition of HIV1 reverse transcriptase RNA-dependent DNA polymerase activity
pIC50 is a log-scale quantity: -log10 of the concentration expressed in molar.

So what does the record say about pIC50 for `Cc1cn([C@@H]2O[C@H](CO[Si](C)(C)C(C)(C)C)[C@@]3(OS(=O)(=O)C(I)=C3N)[C@H]2O[Si](C)(C)C(C)(C)C)c(=O)[nH]c1=O` ?
5.10

So what does the record say about pIC50 for `Cc1cn([C@@H]2O[C@H](CO[Si](C)(C)C(C)(C)C)[C@@]3(OS(=O)(=O)C=C3N=C(N)N)[C@H]2O[Si](C)(C)C(C)(C)C)c(=O)[nH]c1=O` ?
5.42

So what does the record say about pIC50 for `Cc1cn([C@@H]2O[C@H](CO[Si](C)(C)C(C)(C)C)[C@@]3(OS(=O)(=O)C=C3N)[C@H]2O[Si](C)(C)C(C)(C)C)c(=O)n(CCCN)c1=O` ?
5.36

* * *

I'd appreciate it if you could supply pIC50 values for the items below.
# testedSystem: Human immunodeficiency virus type 1 reverse transcriptase (Human immunodeficiency virus 1, UniProt Q72547)
# procedureText: Inhibition of FLAG-p66/HIS-p51-mediated HIV1 reverse transcriptase dimerization
pIC50 is a log-scale quantity: -log10 of the concentration expressed in molar.

So what does the record say about pIC50 for Cc1cn(C2OC(CO[Si](C)(C)C(C)(C)C)CC2O[Si](C)(C)C(C)(C)C)c(=O)n(CC(=O)O)c1=O (configuration not stated) ?
5.96

So what does the record say about pIC50 for `CC(C)(C)[Si](C)(C)OC[C@H]1O[C@@H](n2nncc2C(N)=O)[C@H](O[Si](C)(C)C(C)(C)C)[C@]12OS(=O)(=O)C=C2N` ?
5.00

So what does the record say about pIC50 for `Cc1cn([C@@H]2O[C@H](CO[Si](C)(C)C(C)(C)C)[C@@]3(OS(=O)(=O)C=C3N)[C@H]2O[Si](C)(C)C(C)(C)C)c(=O)n(C)c1=O` ?
5.24

So what does the record say about pIC50 for `Cc1cn([C@@H]2O[C@H](CO[Si](C)(C)C(C)(C)C)[C@@]3(OS(=O)(=O)C=C3N)[C@H]2O[Si](C)(C)C(C)(C)C)c(=O)n(CCCO)c1=O` ?
5.80

So what does the record say about pIC50 for `COC(=O)C(=O)NC1=CS(=O)(=O)O[C@@]12[C@@H](COCc1ccccc1)O[C@@H](n1cc(C)c(=O)n(C)c1=O)[C@@H]2O[Si](C)(C)C(C)(C)C` ?
5.14

So what does the record say about pIC50 for `Cc1cn([C@@H]2O[C@H](CO[Si](C)(C)C(C)(C)C)[C@@]3(OS(=O)(=O)C=C3N)[C@H]2O[Si](C)(C)C(C)(C)C)c(=O)n(CCCN)c1=O` ?
5.14

So what does the record say about pIC50 for `Cc1cn([C@@H]2O[C@H](CO[Si](C)(C)C(C)(C)C)[C@@]3(OS(=O)(=O)C=C3N)[C@H]2O[Si](C)(C)C(C)(C)C)c(=O)n(CCc2ccccc2)c1=O` ?
5.52

So what does the record say about pIC50 for `CCCn1c(=O)c(C)cn([C@@H]2O[C@H](CO[Si](C)(C)C(C)(C)C)[C@@]3(OS(=O)(=O)C=C3N)[C@H]2O[Si](C)(C)C(C)(C)C)c1=O` ?
5.37

So what does the record say about pIC50 for `Cc1cn([C@@H]2O[C@H](CO[Si](C)(C)C(C)(C)C)[C@@]3(OS(=O)(=O)C=C3N)[C@H]2O[Si](C)(C)C(C)(C)C)c(=O)n(CC(=O)N[C@@H](CC(=O)O)C(=O)O)c1=O` ?
4.92

So what does the record say about pIC50 for `Cc1cn([C@@H]2O[C@H](CO[Si](C)(C)C(C)(C)C)[C@@]3(OS(=O)(=O)C=C3N)[C@H]2O[Si](C)(C)C(C)(C)C)c(=O)n(CC(N)=O)c1=O` ?
5.15

So what does the record say about pIC50 for Cc1cn([C@@H]2O[C@H](CO[Si](C)(C)C(C)(C)C)[C@@]3(OS(=O)(=O)C=C3N)[C@H]2O[Si](C)(C)C(C)(C)C)c(=O)n(CC2CO2)c1=O (some centres not stated) ?
5.30

So what does the record say about pIC50 for `Cc1cn([C@@H]2O[C@H](CO[Si](C)(C)C(C)(C)C)[C@@]3(OS(=O)(=O)C(I)=C3N)[C@H]2O[Si](C)(C)C(C)(C)C)c(=O)[nH]c1=O` ?
5.46
